Data provenance is PubChem BioAssay (NCI).

# Tested on: DU-145 prostate
# Experiment description: NCI tumour cell line growth inhibition, 48 h; in the data active = GI50 below about 0.43 µM; inactive = the rest
Log the outcome using a class from label 1 for active, label 0 for inactive

Known results for compounds:
Query smiles	Target entity	Group label
Cc1ccc(C(=O)Nc2ccc(CN3CCN(C)CC3)c(C(F)(F)F)c2)cc1C#Cc1cnc(N)c2ccc(C#N)cc12	DU-145 prostate	label 1
O=C1c2cccc3c([N+](=O)[O-])ccc(c23)C(=O)N1CCCCl	DU-145 prostate	label 0
O=c1[nH]ccc2nc(N3CCC(O)CC3)nc(Nc3ccc(N4CCOCC4)cc3)c12	DU-145 prostate	label 0
C=C(C)[C@@H]1CC[C@]2(C(=O)N3CCN(C)CC3)CC[C@]3(C)[C@H](CC[C@@H]4[C@@]5(C)C/C(=C/c6ccncc6)[C@H](O)C(C)(C)[C@@H]5CC[C@]43C)[C@@H]12	DU-145 prostate	label 0
COc1ccc2c(c1)C(=O)c1c-2n(CCCCl)c(=O)c2cc([N+](=O)[O-])ccc12	DU-145 prostate	label 1

Data request: What outcome does the record of this test show for CS(=O)(=O)OCCCCOS(C)(=O)=O ?
Data returned: label 0

Data request: How about this compound: Nc1nc2ccccc2c2[nH]c3ccccc3c12
Data returned: label 0

Data request: How about this compound: COc1cc2c(cc1OCCCOc1cc3c(cc1OC)C(=O)N1CC(F)(F)C[C@H]1C=N3)N=C[C@@H]1CC(F)(F)CN1C2=O
Data returned: label 1

Data request: How about this compound: COc1ccc(-c2c(-c3cc4c(c(OC)c3OC)OCO4)noc2N)cc1
Data returned: label 0

###

# Tested on: LOX IMVI melanoma
# Experiment description: NCI tumour cell line growth inhibition, 48 h
Measured property: TGI

> print(dat)
                                   molecule  measured.property  result.value
1  O=c1oc2cc(O)ccc2c(O)c1C(c1ccc2ccccc2c1)c1c(O)c2ccc(O)cc2oc1=O                TGI      > 100 µM
2  COc1ccc(/C=C(/C(=O)N2CCN(c3ccc(C)cc3)CC2)c2cc(OC)c(OC)c(OC)c2)cc1N                TGI      > 100 µM
3  Nc1c(C(=O)c2ccc(Cl)cc2)[nH]c(Nc2ccc(Cl)cc2)c1C(=S)Nc1ccccc1                TGI       16.6 µM
4  Cc1ccc(N/N=C/C2=CC(C)(C)C(C#N)(C#N)C(O)=C2C#N)cc1                TGI      > 100 µM
5  CC(=O)OC1COC(n2c(O)c(N=Nc3ccc([N+](=O)[O-])cc3)c3cc(Br)c([N+](=O)[O-])cc32)C(OC(C)=O)C1OC(C)=O (stereo unspecified)                TGI      > 100 µM

Next item in the queue.
Data request: Dear colleague, I am looking for the recorded TGI of the following molecule: N#Cc1c(N)n(C2OC(CO)C(O)C2O)c2ncnc(N)c12 (stereo unspecified)
Data returned: 0.0595 µM

###

# Tested on: MDA-MB-435
# Experiment description: NCI tumour cell line growth inhibition, 48 h
Reported TGI values for the following compounds.

> print(dat)
                                   compound  result.value
1  C=CC(C)CCC(C/C=C(\C)CCCC(C)C)C(=C)CCCC(C)C (centres undefined)      > 100 µM
2  CSC1=C(C(=O)N(COCC[Si](C)(C)C)c2ccccc2Br)CCC(C(C)(C)C)C1 (centres undefined)      > 100 µM
3  COc1ccc(-c2cnc(SCC(=O)c3c(C)n(C)n(-c4ccccc4)c3=O)n2-c2ccc(OC)cc2)cc1       > 50 µM

Data request: Dear colleague, I am looking for the recorded TGI of the following compound: Clc1ccc(/C=c2\nc(-c3ccccc3)n3c2nc2ccccc23)cc1
Data returned: > 100 µM

Data request: How about this compound: CCOC(=O)C1C(c2ccco2)C2(C#N)C(=N)OC1(C)C2(C#N)C#N (centres undefined)
Data returned: > 100 µM

Data request: How about this compound: CC1(C)CC(=O)c2c([nH]c(=S)c(C#N)c2-c2ccc(Br)cc2)C1
Data returned: > 100 µM

Data request: How about this compound: CC1(C)[C@H]2CC[C@](C)(C2)[C@]1(S)Cc1ccccn1
Data returned: 91.9 µM

Data request: How about this compound: O=C(/C=C/c1ccccc1)Nc1ncc(Cc2ccccc2)s1
Data returned: 0.1 µM

Data request: How about this compound: CC1OC1P(=O)(O)O (centres undefined)
Data returned: > 100 µM

###

# Test system: SN12C renal
# Experiment description: NCI tumour cell line growth inhibition, 48 h
Measured property: TGI

Consider the worked cases shown below.
> print(dat)
                                   molecule  result.value
1  CC(SC(=S)N(C)C)C(=O)Nc1nnc(-c2ccc(Cl)cc2)o1 (stereo not drawn)      > 100 µM
2  O=C1CSC(c2c[nH]c3ccccc23)N1c1cccc([N+](=O)[O-])c1 (stereo not drawn)      > 100 µM
3  COC1=CC(=O)c2c(O)c3c(c(O)c2C1=O)OC1(Oc2c(cc4cc(C)oc(=O)c4c2O)CC1O)C3O (stereo not drawn)       49.3 µM

Data request: Reported TGI for SN12C renal, given CC(/C=C/c1ccccc1)=N\N=C(C)\C=C\c1ccccc1 ?
Data returned: > 100 µM

###

Reported TGI values for the following compounds.
# Tested on: PC-3 prostate
# Experiment description: NCI tumour cell line growth inhibition, 48 h

Consider the worked cases shown below.
> print(dat)
                                   compound  result.value
1               CCCCCCCCCCCCCCCCSS(C)(=O)=O      > 100 µM
2  COc1cc2c(cc1OCCCOc1cc3c(cc1OC)C(=O)N1CC(F)(F)C[C@H]1C=N3)N=C[C@@H]1CC(F)(F)CN1C2=O        9.9 µM
3  O=S(=O)(Nc1nc2ccccc2nc1Nc1cccc2ccccc12)c1ccccc1      > 100 µM
4  CCOC(=O)C1C(c2ccco2)C2(C#N)C(=N)OC1(C)C2(C#N)C#N (stereo not given)      > 100 µM
5  O=C(CC(O)c1cccnc1)CC(O)c1cccnc1 (stereo not given)       42.9 µM

Data request: Dear colleague, I am looking for the recorded TGI of the following compound: O=C1CC(c2ccccc2)NCCCCN2CC(CN1)C(C(O)c1ccccc1)C2=O (stereo not given)
Data returned: > 100 µM

Data request: How about this compound: O=C(N/C(=C\NC1=NCCS1)C(=O)N1CSC[C@@H]1C(=O)O)c1ccccc1
Data returned: > 100 µM

Data request: How about this compound: CSc1ccc(/C=C/C(=O)c2nc3ccccc3[nH]2)cc1
Data returned: 68.6 µM

Data request: How about this compound: CC(C)(C)n1nc(C2CC2)cc1NC(=O)Nc1ccc(Cl)cc1
Data returned: > 100 µM

Data request: How about this compound: COc1ccc(-c2c(-c3cc4c(c(OC)c3OC)OCO4)noc2N)cc1
Data returned: > 100 µM

###

# Tested on: SNB-75 CNS
# Experiment description: NCI tumour cell line growth inhibition, 48 h
Measured property: TGI (µM)
Return type: number; implicit unit µM.

Consider the worked cases shown below.
> print(dat)
                                   compound  result.value
1  C[C@]12CCC(=O)C=C1CC[C@@H]1[C@@H]2CC[C@]2(C)C(=O)/C(=C/c3ccncc3)C[C@@H]12          45.1
2  C=C1CC(COc2ccc3c(C)c(Cl)c(=O)oc3c2)(c2ccccc2)OC1=O (stereo not given)          11.7
3           Cc1c2ccccc2c(CSC(=N)N)c2ccccc12         0.445

Next item in the queue.
Data request: Dear colleague, I am looking for the recorded TGI of the following compound: O=C(Nc1ccc(-n2ccc3c(NC(=O)c4ccccc4)ncnc32)cc1)Nc1ccc(Cl)c(C(F)(F)F)c1
Data returned: 8.08

###

# Test system: M14 melanoma
# Experiment description: NCI tumour cell line growth inhibition, 48 h; in the data active = GI50 below about 0.43 µM; inactive = the rest
Log the outcome using a class from true = active, false = inactive

Known results for compounds:
> print(dat)
                               query.smiles  target.entity  group.label
1  COc1ccc(/C=C(/C(=O)N2CCN(c3ccc(C)cc3)CC2)c2cc(OC)c(OC)c(OC)c2)cc1N   M14 melanoma         true
2      COc1ccc(NC(=O)COc2ccccc2)c(C(N)=O)c1   M14 melanoma        false
3  CS(=O)(=O)c1nccc(-c2c(-c3cccc(OCc4ccccc4)c3)nc3sccn23)n1   M14 melanoma        false
4  COc1cc(-c2nn(-c3ccc(NC(=O)Nc4ccc(Cl)c(C(F)(F)F)c4)cc3)cc2-c2ccncc2)ccc1Cl   M14 melanoma        false

For the next question, use this compound.
Data request: What outcome does the record of this test show for CN(Cc1ccccc1)c1ncnc2ccc(Br)cc12 ?
Data returned: false
